// provenance: patent US8513232B2

Below, each of the compounds is paired with its reported melting point value.

Illustrative cases are given below, each with its answer.
compound | melting point
CNC(=O)c1ccc(-c2ccc3c(c2)CCC2(CCN(C4CCC4)CC2)O3)cc1Cl | 144.2 °C
O=c1ccc(-c2ccc3c(c2)COC2(CCN(C4CCC4)CC2)O3)cn1CCO | 129 to 130 °C
c1ccc(OC2CCN(c3ccc4c(c3)CCC3(CCN(C5CCC5)CC3)O4)CC2)cc1 | > 265 °C (dec.)
CNC(=O)c1cccc(-c2ccc3c(c2)CCOC2(CCN(C4CCC4)CC2)O3)c1 | 100.2 to 102.5 °C
O=S1(=O)CCC(O)(c2ccc3c(c2)CCC2(CCN(C4CCC4)CC2)O3)CC1 | 213 to 215 °C

Value of melting point reported for the compound `COc1ccc(Cc2ccc3c(c2)COC2(CCN(C4CCC4)CC2)O3)cn1` is 229 to 231 °C

Value of melting point reported for the compound OC1CC2(CCN(C3CCC3)CC2)Oc2ccc(OCc3ccccc3)cc21 (centres unmarked) is 69 to 71 °C

Value of melting point reported for the compound `c1ncc(-c2ccc3c(c2)COC2(CCN(C4CCC4)CC2)O3)cn1` is 153 to 155 °C
